Record: compiled pIC50 on Cyclin-dependent kinase 8 (Homo sapiens) from multiple reports.
pIC50: −log10 of the molar value.
Note that class boundaries on pIC50 are bucket A = under 6, bucket B = from 6 up to 7, bucket C = 7 and over

O=C(Cc1nnc(-c2ccc3ncccc3c2)o1)NCc1ccc(F)cc1 = bucket C

Form: Item = CCCn1cc(-c2ccncc2)cc1C(=O)N1CCC(C)CC1 ; Class = ? bucket A

Form: Item = COc1ccc2ncc(C#N)c(N3CCC(C(=O)Nc4ccc(F)c(C)c4)CC3)c2c1 ; Class = ? bucket A

Form: Item = CC1CCN(C(=O)c2ccc3ncnc(N4CCCCC4)c3c2)CC1 ; Class = ? bucket A

Form: Item = Cc1ccccc1-c1c[nH]c2ncc(-c3cccc(C(N)=O)c3)cc12 ; Class = ? bucket B

Form: Item = NC(=O)c1cccc(-c2ccc(N)nc2)c1 ; Class = ? bucket B
